- Test system: NCI-H1944
- test.description: relative viability (nuclei count vs DMSO), 5 days (fraction); higher = more cells survive
- measurement.parameters: first compound 0.5 µM
Below: a set of entries, each annotated with reported relative viability.

// solved cases for relative viability follow
compound	system.tested	relative viability
CC1(C)CCC(c2ccc(Cl)cc2)=C(CN2CCN(c3ccc(C(=O)NS(=O)(=O)c4ccc(N[C@H](CCN5CCOCC5)CSc5ccccc5)c(S(=O)(=O)C(F)(F)F)c4)cc3)CC2)C1 [Navitoclax] + CS(=O)(=O)N1CCN(Cc2cc3nc(-c4cccc5[nH]ncc45)nc(N4CCOCC4)c3s2)CC1 [Pictilisib] (partner 1 µM)	NCI-H1944	0.397
CC1(C)CCC(c2ccc(Cl)cc2)=C(CN2CCN(c3ccc(C(=O)NS(=O)(=O)c4ccc(N[C@H](CCN5CCOCC5)CSc5ccccc5)c(S(=O)(=O)C(F)(F)F)c4)cc3)CC2)C1 [Navitoclax] + COc1cccc2cc(-c3nc([C@H]4CC[C@H](C(=O)O)CC4)n4ncnc(N)c34)[nH]c12 [OSI-027] (partner 0.5 µM)	NCI-H1944	0.419
CC1(C)CCC(c2ccc(Cl)cc2)=C(CN2CCN(c3ccc(C(=O)NS(=O)(=O)c4ccc(N[C@H](CCN5CCOCC5)CSc5ccccc5)c(S(=O)(=O)C(F)(F)F)c4)cc3)CC2)C1 [Navitoclax] + NC(=O)Nc1cc(-c2cccc(F)c2)sc1C(=O)N[C@H]1CCCNC1 [AZD7762] (partner 0.2 µM)	NCI-H1944	0.582
CC1(C)CCC(c2ccc(Cl)cc2)=C(CN2CCN(c3ccc(C(=O)NS(=O)(=O)c4ccc(N[C@H](CCN5CCOCC5)CSc5ccccc5)c(S(=O)(=O)C(F)(F)F)c4)cc3)CC2)C1 [Navitoclax] + Cc1nc(Nc2ncc(C(=O)Nc3c(C)cccc3Cl)s2)cc(N2CCN(CCO)CC2)n1 [Dasatinib] (partner 0.075 µM)	NCI-H1944	0.398

Could you now look at the following compound, please?
Request - read-out relative viability | tested on NCI-H1944 | compound CC1(C)CCC(c2ccc(Cl)cc2)=C(CN2CCN(c3ccc(C(=O)NS(=O)(=O)c4ccc(N[C@H](CCN5CCOCC5)CSc5ccccc5)c(S(=O)(=O)C(F)(F)F)c4)cc3)CC2)C1 [Navitoclax] + O=C(CCCCCCC(=O)Nc1ccccc1)NO [Vorinostat] (partner 1 µM) 0.578

---

Reported relative viability values are given for each entry in this list.
- Test system: 201T
- test.description: relative viability (nuclei count vs DMSO), 5 days (fraction); higher = more cells survive
- measurement.parameters: first compound 0.005 µM

Would you please look over these solved cases?
compound	reading
CC1(C)CCC(c2ccc(Cl)cc2)=C(CN2CCN(c3ccc(C(=O)NS(=O)(=O)c4ccc(N[C@H](CCN5CCOCC5)CSc5ccccc5)c(S(=O)(=O)C(F)(F)F)c4)cc3)CC2)C1 [Navitoclax] + COc1cccc2cc(-c3nc([C@H]4CC[C@H](C(=O)O)CC4)n4ncnc(N)c34)[nH]c12 [OSI-027] (partner 0.5 µM)	0.73
CC1(C)CCC(c2ccc(Cl)cc2)=C(CN2CCN(c3ccc(C(=O)NS(=O)(=O)c4ccc(N[C@H](CCN5CCOCC5)CSc5ccccc5)c(S(=O)(=O)C(F)(F)F)c4)cc3)CC2)C1 [Navitoclax] + COc1cc2c(Oc3ccc(NC(=O)C4(C(=O)Nc5ccc(F)cc5)CC4)cc3F)ccnc2cc1OCCCN1CCOCC1 [Foretinib] (partner 0.25 µM)	1.2

Please give the measured relative viability for this compound: CC1(C)CCC(c2ccc(Cl)cc2)=C(CN2CCN(c3ccc(C(=O)NS(=O)(=O)c4ccc(N[C@H](CCN5CCOCC5)CSc5ccccc5)c(S(=O)(=O)C(F)(F)F)c4)cc3)CC2)C1 [Navitoclax] + N=C(N)NC(=N)NCCc1ccccc1 [Phenformin] (partner 250 µM) 0.447

---

- Tested on: NCI-H1623
- test.description: relative viability (nuclei count vs DMSO), 5 days (fraction); higher = more cells survive
- measurement.parameters: first compound 0.253 µM
observable: relative viability
Please reply with the value in numeric form only.

Some solved cases for reference:
compound	relative viability
C=C1C(=O)O[C@@H](CCCCCCCC)[C@@H]1C(=O)O [C-75] + Cc1cc(Nc2cc(N3CCN(C)CC3)nc(Sc3ccc(NC(=O)C4CC4)cc3)n2)n[nH]1 [Tozasertib] (partner 0.1 µM)	0.417
Oc1nc(-c2ccc(C(F)(F)F)cc2)nc2c1CSCC2 [XAV939] + Cc1nc(Nc2ncc(C(=O)Nc3c(C)cccc3Cl)s2)cc(N2CCN(CCO)CC2)n1 [Dasatinib] (partner 0.075 µM)	0.516

Could you now consider this next compound?
# get_value(readout='relative viability', item= C=C1C(=O)O[C@@H](CCCCCCCC)[C@@H]1C(=O)O [C-75] + COc1cccc2cc(-c3nc([C@H]4CC[C@H](C(=O)O)CC4)n4ncnc(N)c34)[nH]c12 [OSI-027] (partner 0.5 µM) ) 0.503

---

- Tested on: NCI-H1993
- test.description: relative viability (nuclei count vs DMSO), 5 days (fraction); higher = more cells survive
- measurement.parameters: first compound 0.3162 µM
// assign Met if relative viability falls strictly below 0.6, else Not met (ties count as Not met)

compound	label
NC(=O)Nc1cc(-c2cccc(F)c2)sc1C(=O)N[C@H]1CCCNC1 [AZD7762] + Cc1nc(NC(=O)N2CCC[C@H]2C(N)=O)sc1-c1ccnc(C(C)(C)C(F)(F)F)c1 [Alpelisib] (partner 2 µM)	Not met

# TODO verify relative viability < 0.6 strictly for this compound: NC(=O)Nc1cc(-c2cccc(F)c2)sc1C(=O)N[C@H]1CCCNC1 [AZD7762] + COc1cccc2cc(-c3nc([C@H]4CC[C@H](C(=O)O)CC4)n4ncnc(N)c34)[nH]c12 [OSI-027] (partner 0.5 µM) Met

What do you have for NC(=O)Nc1cc(-c2cccc(F)c2)sc1C(=O)N[C@H]1CCCNC1 [AZD7762] + O=C(CCCCCCC(=O)Nc1ccccc1)NO [Vorinostat] (partner 1 µM) ? Not met

Request: NC(=O)Nc1cc(-c2cccc(F)c2)sc1C(=O)N[C@H]1CCCNC1 [AZD7762] + Cc1nc(Nc2ncc(C(=O)Nc3c(C)cccc3Cl)s2)cc(N2CCN(CCO)CC2)n1 [Dasatinib] (partner 0.075 µM) Met

---

- System: HCC-827
- test.description: relative viability (nuclei count vs DMSO), 5 days (fraction); higher = more cells survive
- measurement.parameters: first compound 0.253 µM
observable: relative viability
Lab note: write the figure by itself, no unit.

molecule	relative viability
Oc1nc(-c2ccc(C(F)(F)F)cc2)nc2c1CSCC2 [XAV939] + CS(=O)(=O)CCNCc1ccc(-c2ccc3ncnc(Nc4ccc(OCc5cccc(F)c5)c(Cl)c4)c3c2)o1 [Lapatinib] (partner 2 µM)	0.178
Oc1nc(-c2ccc(C(F)(F)F)cc2)nc2c1CSCC2 [XAV939] + Nc1ncn([C@H]2C[C@H](O)[C@@H](CO)O2)c(=O)n1 [Decitabine] (partner 2 µM)	0.269

Reported relative viability for Oc1nc(-c2ccc(C(F)(F)F)cc2)nc2c1CSCC2 [XAV939] + C[C@]1(O)C[C@@H](c2nc(-c3ccc4ccc(-c5ccccc5)nc4c3)c3c(N)nccn32)C1 [Linsitinib] (partner 1 µM) : what is it? 0.91

---

- Test system: NCI-H1648
- test.description: relative viability (nuclei count vs DMSO), 5 days (fraction); higher = more cells survive
- measurement.parameters: first compound 0.005 µM
observable: relative viability
Lab note: jot down the number only; don't add units.

For orientation, consider the following solved cases.
molecule	relative viability
CC1(C)CCC(c2ccc(Cl)cc2)=C(CN2CCN(c3ccc(C(=O)NS(=O)(=O)c4ccc(N[C@H](CCN5CCOCC5)CSc5ccccc5)c(S(=O)(=O)C(F)(F)F)c4)cc3)CC2)C1 [Navitoclax] + COc1cccc2cc(-c3nc([C@H]4CC[C@H](C(=O)O)CC4)n4ncnc(N)c34)[nH]c12 [OSI-027] (partner 0.5 µM)	0.257
CC1(C)CCC(c2ccc(Cl)cc2)=C(CN2CCN(c3ccc(C(=O)NS(=O)(=O)c4ccc(N[C@H](CCN5CCOCC5)CSc5ccccc5)c(S(=O)(=O)C(F)(F)F)c4)cc3)CC2)C1 [Navitoclax] + O=C(CCCCCCC(=O)Nc1ccccc1)NO [Vorinostat] (partner 1 µM)	0.292

Value lookup for relative viability; key = CC1(C)CCC(c2ccc(Cl)cc2)=C(CN2CCN(c3ccc(C(=O)NS(=O)(=O)c4ccc(N[C@H](CCN5CCOCC5)CSc5ccccc5)c(S(=O)(=O)C(F)(F)F)c4)cc3)CC2)C1 [Navitoclax] + Nc1ncn([C@H]2C[C@H](O)[C@@H](CO)O2)c(=O)n1 [Decitabine] (partner 2 µM) 0.528

Ok, now CC1(C)CCC(c2ccc(Cl)cc2)=C(CN2CCN(c3ccc(C(=O)NS(=O)(=O)c4ccc(N[C@H](CCN5CCOCC5)CSc5ccccc5)c(S(=O)(=O)C(F)(F)F)c4)cc3)CC2)C1 [Navitoclax] + Cc1cc(Nc2cc(N3CCN(C)CC3)nc(Sc3ccc(NC(=O)C4CC4)cc3)n2)n[nH]1 [Tozasertib] (partner 0.1 µM) 0.609
